Target protein (sequence): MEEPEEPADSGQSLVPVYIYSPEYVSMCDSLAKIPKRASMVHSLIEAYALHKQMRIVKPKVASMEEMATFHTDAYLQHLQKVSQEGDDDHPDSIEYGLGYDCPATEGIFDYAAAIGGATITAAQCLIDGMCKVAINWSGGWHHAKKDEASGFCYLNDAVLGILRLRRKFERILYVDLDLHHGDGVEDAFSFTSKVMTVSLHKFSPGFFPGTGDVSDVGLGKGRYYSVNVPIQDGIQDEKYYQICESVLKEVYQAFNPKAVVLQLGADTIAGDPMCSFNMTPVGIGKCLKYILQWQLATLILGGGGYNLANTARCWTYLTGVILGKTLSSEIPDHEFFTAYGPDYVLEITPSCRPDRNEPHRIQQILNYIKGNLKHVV
For each entry below, report its log10(IC50) value.
Scale: log10; quantity: IC50; unit before log: nM

Quick note, log10(IC50) for COc1ccc(NC(=O)[C@@H]2Cc3ccc(OCC(=O)NO)cc3CN2CCCc2ccccc2)cc1 landed at 3.24

COc1ccc(NC(=O)[C@@H]2Cc3ccc(OCC(=O)NO)cc3CN2C(=O)[C@@H](NC(=O)OC(C)(C)C)C(C)C)cc1 yielded log10(IC50) of 2.02

Just so you know, measured log10(IC50) for CC[C@H](C)[C@H](N)C(=O)N1Cc2cc(OCC(=O)NO)ccc2C[C@H]1C(=O)Nc1ccc(OC)cc1 came out at 3.02

Entry CC[C@H](C)[C@H](NC(=O)OC(C)(C)C)C(=O)N1Cc2cc(OCC(=O)NO)ccc2C[C@H]1C(=O)Nc1ccc(OC)cc1 , log10(IC50) reported as 2.14

Form field log10(IC50), entry COc1ccc(NC(=O)[C@@H]2Cc3ccc(OCC(=O)NO)cc3CN2C(=O)[C@H](Cc2ccccc2)NC(=O)OC(C)(C)C)cc1 : 2.01

Just so you know, measured log10(IC50) for CC[C@H](C)[C@@H](CN1Cc2cc(OCC(=O)NO)ccc2C[C@H]1C(=O)Nc1ccc(OC)cc1)NC(=O)CC(C)(C)C came out at 2.52

Entry under test: CC[C@H](C)[C@@H](CN1Cc2cc(OCC(=O)NO)ccc2C[C@H]1C(=O)Nc1ccc(OC)cc1)NC(=O)OC(C)(C)C . Its log10(IC50) was 2.42

Entry COc1ccc(NC(=O)[C@@H]2Cc3ccc(OCC(=O)NO)cc3CN2C(=O)CCCc2ccccc2)cc1 ; log10(IC50) = 2.06

Attribution: ChEMBL document CHEMBL1795318
